biological target: Human TLR4 (rhTLR4) (human), O00206; assay: SPR; TLR4/MD-2 complex or TLR4 coated on a CM5 chip; A-box protein injected as analyte (0-5 µM on TLR4/MD-2, 0-10 µM on TLR4); Biacore T200, HBS-EP buffer pH 7.4
Sequence (O00206 24-631): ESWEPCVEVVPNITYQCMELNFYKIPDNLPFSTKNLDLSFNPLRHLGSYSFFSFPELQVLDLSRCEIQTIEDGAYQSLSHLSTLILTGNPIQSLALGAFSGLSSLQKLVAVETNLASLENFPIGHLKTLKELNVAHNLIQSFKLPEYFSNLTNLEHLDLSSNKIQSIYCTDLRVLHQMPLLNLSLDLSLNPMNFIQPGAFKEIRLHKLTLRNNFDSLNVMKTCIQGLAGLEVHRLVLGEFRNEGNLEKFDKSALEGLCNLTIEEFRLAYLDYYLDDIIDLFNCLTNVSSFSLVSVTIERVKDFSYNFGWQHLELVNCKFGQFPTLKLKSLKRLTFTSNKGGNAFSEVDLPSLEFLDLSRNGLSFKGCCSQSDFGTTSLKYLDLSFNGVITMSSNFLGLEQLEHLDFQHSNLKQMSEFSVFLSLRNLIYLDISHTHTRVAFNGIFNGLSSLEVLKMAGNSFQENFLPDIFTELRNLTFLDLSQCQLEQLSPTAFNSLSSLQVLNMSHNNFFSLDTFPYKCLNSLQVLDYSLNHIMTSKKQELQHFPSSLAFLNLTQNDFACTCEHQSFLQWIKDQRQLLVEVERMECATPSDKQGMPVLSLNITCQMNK
recorded.endpoint: Kd

Read off the recorded Kd for Recombinant A-box without GST tag (HMGB1 A-box domain) (domain or fragment, modifications not checked) PRGKMSSYAFFVQTCREEHKKKHPDASVNFSEFSKKCSERWKTMSAKEKGKFEDMAKADKARYEREMKTYI
1030 nM
